Molecular target: histidine decarboxylase (Rattus norvegicus, UniProt P16453)
Construct: a crude enzyme preparation obtained from fetal rats; from tissue
Sequence (P16453 whole entry): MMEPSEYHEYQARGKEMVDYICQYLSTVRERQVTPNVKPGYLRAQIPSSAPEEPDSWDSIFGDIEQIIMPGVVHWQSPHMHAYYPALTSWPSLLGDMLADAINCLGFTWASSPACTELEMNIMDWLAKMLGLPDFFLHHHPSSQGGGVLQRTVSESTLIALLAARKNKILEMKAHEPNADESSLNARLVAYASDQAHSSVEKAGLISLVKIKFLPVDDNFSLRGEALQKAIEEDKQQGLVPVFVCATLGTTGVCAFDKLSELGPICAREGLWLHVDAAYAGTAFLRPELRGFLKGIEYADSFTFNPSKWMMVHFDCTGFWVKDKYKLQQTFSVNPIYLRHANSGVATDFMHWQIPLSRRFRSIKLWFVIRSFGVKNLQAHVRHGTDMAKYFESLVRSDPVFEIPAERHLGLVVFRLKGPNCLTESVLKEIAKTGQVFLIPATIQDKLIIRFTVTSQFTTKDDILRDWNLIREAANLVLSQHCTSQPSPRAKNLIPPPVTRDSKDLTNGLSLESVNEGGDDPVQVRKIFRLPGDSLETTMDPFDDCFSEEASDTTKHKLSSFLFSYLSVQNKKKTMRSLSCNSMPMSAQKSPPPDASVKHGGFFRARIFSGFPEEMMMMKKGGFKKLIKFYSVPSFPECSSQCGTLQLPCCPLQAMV
Assay: Inhibition of Histidine Decarboxylase (14C-histamine formation)
Type: biochemical, fetal rats
Details: pH 6.8, two hours at 37° C.; read-out: Histidine Decarboxylase Inhibition ID50
assay-metric: log10 of IC50 (log10 of the value in nM)
Units before log transform: nM; reported quantity: IC50; transform: log10.

Q. Endpoint output: log10 of IC50 of CCC(=O)Oc1ccccc1C(=O)Nc1cc(Cl)c(N)c(Cl)c1 [Compound 38] . Value?
A. 2.30

----------
Molecular target: histidine decarboxylase (Rattus norvegicus)
Construct: a crude enzyme preparation obtained from fetal rats; from tissue
Assay: Inhibition of Histidine Decarboxylase (14C-histamine formation)
Type: biochemical, fetal rats
Conditions: pH 6.8, two hours at 37° C.; read-out: Histidine Decarboxylase Inhibition ID50
Items are presented alongside their recorded pIC50.
# pIC50 is unitless: minus log10 of the molar concentration; print number only

Below, 6 molecules whose answers are already recorded.
| compound-structure-string | pIC50 |
| --- | --- |
| O=C(Nc1cc(Cl)c(O)c(C(=O)O)c1)c1cc(O)ccc1O | 6.30 |
| COc1c(F)cc(NC(=O)c2cc(Cl)ccc2O)cc1Cl | 6.16 |
| CCc1cc(NC(=O)c2ccc(O)cc2O)cc(F)c1OC | 6.09 |
| CCc1cc(NC(=O)c2ccc(C)cc2O)cc(C(=O)OC)c1O | 6.10 |
| CC(=O)Oc1cc(F)ccc1C(=O)Nc1cc(C)c(OC(C)=O)c(Br)c1 | 6.38 |
| CCOC(=O)c1cc(NC(=O)c2ccccc2OC(=O)c2ccccc2)cc(Cl)c1O | 6.49 |

Q. So what's the measured pIC50 for this one? CC(C)CC(=O)Oc1ccccc1C(=O)Nc1cc(Cl)c(OC(=O)CC(C)C)c(Cl)c1
A. 7.77

Q. Can you check CCC(=O)Oc1ccc(NC(=O)c2ccc(O)cc2OC(=O)CC)cc1Br next?
A. 6.31

Q. For CCc1cc(NC(=O)c2cc(C)ccc2O)cc(C(=O)OC)c1O then?
A. 6.01

Q. Now the molecule O=C(Nc1cc(Cl)c(O)c(Cl)c1)c1ccc(O)cc1O
A. 7.55

Q. Another molecule: O=C(Nc1cc(Cl)c(O)c(Cl)c1)c1cc(F)ccc1O
A. 6.64

Q. // next record CCCC(=O)Oc1ccc(C(=O)Nc2cc(Cl)c(N)c(C(=O)OC)c2)c(OC(=O)CCC)c1
A. 6.29

Q. Queued: CC(=O)Oc1ccccc1C(=O)Nc1cc(Cl)c(OC(C)=O)c(Cl)c1
A. 7.62

Q. Next: CCOc1ccc(NC(=O)c2ccc(F)cc2O)cc1Cl
A. 6.30
